pIC50: −log10 of the molar value.
Observed pIC50 values for Glutamate receptor ionotropic, NMDA 1 (Rattus norvegicus, UniProt P35439) are listed in what follows.
measurement_kind: pIC50

compound	target_desc	measurement_kind	readout_qualifier	reported_value
CC1CCc2c([nH]c(=O)c(-c3ccccc3)c2O)C1 (centres undefined)	Glutamate receptor ionotropic, NMDA 1 (Rattus norvegicus, UniProt P35439)	pIC50	=	5.46
CC1CCc2c([nH]c(=O)c(-c3cccc(Oc4ccccc4)c3)c2O)C1 (centres undefined)	Glutamate receptor ionotropic, NMDA 1 (Rattus norvegicus, UniProt P35439)	pIC50	=	7.24
Cc1[nH]c(=O)c(-c2ccccc2)c(O)c1C	Glutamate receptor ionotropic, NMDA 1 (Rattus norvegicus, UniProt P35439)	pIC50	<	4.00
